Assay: probe aEGFR binding to arrayed compounds – biochemical, biotinylated probe, 635/667 nm fluorescence, primary screen (AID 1097);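 further: probe is a biotinylated anti-EGFR antibody binding compounds printed on slides; score combines fluorescence near 667 nm and signal to noise of each spot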
Details: small-molecule microarray, higher = more signal
EXPERIMENTAL READOUT: composite z-score
# answer = number (no unit)

Please review the following examples before continuing.
| COMPOUND | EXPERIMENTAL READOUT | OBSERVED MEASUREMENT |
| --- | --- | --- |
| C=C(C)[C@@H]1CC=C(C(O)C2C=CC3C(=O)NC(=O)C3N2Nc2ccc(Cl)cc2Cl)CC1 (some centres undefined) | composite z-score | 0.0044 |
| Cc1ccc(C2C3C(=O)CC4C(=O)N(c5ccccc5)C(=O)C4C3CN2S(=O)(=O)c2ccc(C)cc2)cc1 (centres undefined) | composite z-score | 0.786 |

Name the recorded composite z-score for `C=CC[C@]12N=C(c3ccc(OCCCO)cc3)O[C@H]1c1ccccc1N(CCS(=O)(=O)c1ccccc1)C2=O` . -0.0828

Here is the next compound: `C=C(CCCC)/C(=C/C[C@H](OC(=O)c1ccncc1)c1ccc(OCCO)cc1)c1cc(C(=O)OC)ccc1OC` 0.689

The origin of these recorded values is PubChem BioAssay.
